Target: T1, human beta klotho protein (soluble, used in Biacore) (human, UniProt Q86Z14 53-997, limits assumed)
T1 construct: also called HuKLB; huKLB
T1 sequence: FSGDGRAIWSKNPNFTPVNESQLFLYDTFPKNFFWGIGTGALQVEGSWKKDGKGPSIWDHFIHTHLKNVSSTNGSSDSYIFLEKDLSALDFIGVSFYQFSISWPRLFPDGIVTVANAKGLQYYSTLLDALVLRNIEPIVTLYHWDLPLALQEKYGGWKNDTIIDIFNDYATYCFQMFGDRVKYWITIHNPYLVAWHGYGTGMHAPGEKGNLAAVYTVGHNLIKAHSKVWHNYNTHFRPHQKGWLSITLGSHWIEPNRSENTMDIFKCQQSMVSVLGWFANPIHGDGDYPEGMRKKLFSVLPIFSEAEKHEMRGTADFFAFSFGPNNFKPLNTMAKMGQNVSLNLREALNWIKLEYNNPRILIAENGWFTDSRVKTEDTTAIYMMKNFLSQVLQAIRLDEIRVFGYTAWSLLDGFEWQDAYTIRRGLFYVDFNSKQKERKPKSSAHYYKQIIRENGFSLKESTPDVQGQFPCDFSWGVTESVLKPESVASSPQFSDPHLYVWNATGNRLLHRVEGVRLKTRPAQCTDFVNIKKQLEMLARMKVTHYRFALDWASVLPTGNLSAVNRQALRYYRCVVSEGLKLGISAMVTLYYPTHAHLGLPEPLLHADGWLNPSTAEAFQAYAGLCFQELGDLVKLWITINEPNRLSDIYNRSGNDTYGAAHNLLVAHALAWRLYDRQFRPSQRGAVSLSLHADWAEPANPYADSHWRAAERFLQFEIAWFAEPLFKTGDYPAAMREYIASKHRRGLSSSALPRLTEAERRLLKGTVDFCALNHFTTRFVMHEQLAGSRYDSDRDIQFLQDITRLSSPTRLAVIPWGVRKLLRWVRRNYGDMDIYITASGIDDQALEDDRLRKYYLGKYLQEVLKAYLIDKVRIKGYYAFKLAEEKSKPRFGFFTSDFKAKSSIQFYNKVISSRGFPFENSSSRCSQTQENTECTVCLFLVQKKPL
Test: Biacore SPR, antibody captured on anti-mouse Fc, KLB as analyte (1.56-25 nM), 25 C
This section presents binders with their documented Kd values.
readoutLabel: Kd (nM)

binder	recordedResult
antibody 4P5 (antibody, V domains shown, Murine monoclonal antibody) VH: QVQLQQSGPELVKPGALVKISCKASGYTFTRYDINWVKKRPGQGLEWIGWIYPGDDSTKYNEKFKGKATLTADKSSSTAYMQLSSLTSENSAVYFCARSDYYGSRSFVYWGQGTLVTVSA VL: DILLTQSPASLAVSLGQRATISCRASKSVSTSGYSYMHWYQQKPGQPPKLLIYLASNLESGVPARFSGRGSGTDFTLNIHPVEEEDAATYYCHHSGELPYTFGGGTKLEIK	0.26
antibody 3L3 (antibody, V domains shown, Murine monoclonal antibody) VH: QVQPQESGPELVKPGTLVKISCKASGYTFTSYDINWVKQRPGQGLEWIGWIYPGDGSPKYDEKFKGKATLTADKSSSTAYMQLSSLTSENSAVYFCARSDYYGSRSFVYWGQGTLVTVSA VL: DIVLTQSPASLAVSLGQRATISCRASKSVSTSGYSYVHWYQQKPGQPPKLLIYLASNLESGVPARFSGRGSGTDFTLNIHPVEEEDAATYYCQHSGELPYTFGGGTKLEIK	1.14
antibody 2L12 (antibody, V domains shown, Murine monoclonal antibody) VH: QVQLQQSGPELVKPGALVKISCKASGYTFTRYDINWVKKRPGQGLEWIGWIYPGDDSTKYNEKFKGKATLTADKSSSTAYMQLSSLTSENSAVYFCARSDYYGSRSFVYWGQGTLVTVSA VL: DIVLTQSPASLPVSLGQRATISCRASKSVSTSGYSYLHWYQQKPGQPPKLLIYLASNLESGVPARFSGSGSGTDFTLNIHPVEEEDAATYYCQHSGELPYTFGGGTKLEIK	0.22

Provenance of the data: patent US20210030857A1
